Measured Fold diff. by item
Molecular target: T1, recombinant human KAAG1 (Kidney associated antigen 1) (human, UniProt Q9UBP8 1-84)
T1 construct: also called KAAG1 protein
T1 sequence: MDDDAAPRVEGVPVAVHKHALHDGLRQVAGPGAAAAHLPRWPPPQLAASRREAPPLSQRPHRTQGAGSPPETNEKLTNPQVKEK
Test: SPR (BioRad ProteOn XPR36); fold difference of KD relative to LcHc
Protocol: Immediately after the activation, a 13 μg/mL solution of anti-human IgG Fc fragment specific in 10 mM NaOAc pH 4.5 was injected in the analyte direction at a flow rate of 25 μL/min until approximately 8000 resonance units (RUs) were immobilized. […] Sensorgrams were aligned and double-referenced using the buffer blank injection and interspots, and the resulting sensorgrams were analyzed using ProteOn Manager software v3.0.
# answer = number (no unit)

Some solved cases for reference:
humanized 3A4 antibody Lh1Hh4 (antibody, human IgG1, kappa, V domains shown, Human IgG1/kappa) VH: QIQLVQSGAEVKKPGASVKVSCKASGYTFTDDYMSWVKQAPGQGLEWIGDINPYNGDTNYNQKFKGKATLTVDKSTSTAYMELSSLRSEDTAVYYCARDPGAMDYWGQGTLVTVSS VL: DIVMTQTPLSLPVTPGEPASISCRSSQSLLHSNGNTYLEWYLQKPGQSPQLLIYTVSNRFSGVPDRFSGSGSGTDFTLKISRVEAEDVGVYYCFQGSHVPLTFGQGTKLEIKR ... 9.3
humanized 3A4 antibody Lh1Hh2 (antibody, human IgG1, kappa, V domains shown, Human IgG1/kappa) VH: QIQLVQSGAEVKKPGASVKVSCKASGYTFTDDYMSWVRQAPGQGLEWMGDINPYNGDTNYNQKFKGRVTITADKSTSTAYMELSSLRSEDTAVYYCARDPGAMDYWGQGTLVTVSS VL: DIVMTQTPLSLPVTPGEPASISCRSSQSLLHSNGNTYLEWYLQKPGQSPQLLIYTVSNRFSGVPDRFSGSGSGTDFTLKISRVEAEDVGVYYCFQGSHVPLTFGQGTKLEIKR ... 13.2
humanized 3A4 antibody Lh1Hh1 (antibody, human IgG1, kappa, V domains shown, Human IgG1/kappa; 100% humanized frameworks; also called H1 L1; H1L1) VH: QVQLVQSGAEVKKPGASVKVSCKASGYTFTDDYMSWVRQAPGQGLEWMGDINPYNGDTNYNQKFKGRVTITADTSTSTAYMELSSLRSEDTAVYYCARDPGAMDYWGQGTLVTVSS VL: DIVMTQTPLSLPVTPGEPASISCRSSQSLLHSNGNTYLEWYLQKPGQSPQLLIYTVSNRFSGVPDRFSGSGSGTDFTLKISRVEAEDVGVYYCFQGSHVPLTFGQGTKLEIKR ... 29.6
humanized 3A4 antibody Lh2Hh1 (antibody, human IgG1, kappa, V domains shown, Human IgG1/kappa) VH: QVQLVQSGAEVKKPGASVKVSCKASGYTFTDDYMSWVRQAPGQGLEWMGDINPYNGDTNYNQKFKGRVTITADTSTSTAYMELSSLRSEDTAVYYCARDPGAMDYWGQGTLVTVSS VL: DVVMTQTPLSLPVTPGEPASISCRSSQSLLHSNGNTYLEWYLQKPGQSPKLLIYTVSNRFSGVPDRFSGSGSGTDFTLKISRVEAEDVGVYYCFQGSHVPLTFGQGTKLEIKR ... 21.3

Then this binder:
Look up and state reported Fold diff. for humanized 3A4 antibody Lh2Hh2 (antibody, human IgG1, kappa, V domains shown, Human IgG1/kappa) VH: QIQLVQSGAEVKKPGASVKVSCKASGYTFTDDYMSWVRQAPGQGLEWMGDINPYNGDTNYNQKFKGRVTITADKSTSTAYMELSSLRSEDTAVYYCARDPGAMDYWGQGTLVTVSS VL: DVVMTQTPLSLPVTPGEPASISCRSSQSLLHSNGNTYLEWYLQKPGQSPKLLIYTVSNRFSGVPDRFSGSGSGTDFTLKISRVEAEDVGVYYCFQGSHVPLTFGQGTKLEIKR 15.3
